Species on record: Mus musculus
test-protocol: Inhibition constant assumed to reflect the affinity for the transport site in mouse erythrocytes
recorded-endpoint: pKi
Reminder that pKi means the negative base-10 logarithm of the concentration expressed in mol/L.

O=c1ccn([C@H]2C[C@H](O)[C@@H](CO)O2)c(=O)[nH]1 [DEOXYURIDINE] = 3.96

Query compound follows.
The compound listed as O=c1[nH]c(=O)n([C@H]2C[C@H](O)[C@@H](CO)O2)cc1/C=C/Br [BRIVUDINE] shows pKi equal to 4.64

----------
Tested on: E6SM
test-protocol: Tested for the minimum inhibitory concentration required to reduce thymidine kinase deficient herpes simplex virus type 1 (TK- HSV-1) strain B2006 induced cytopathogenicity by 50%.
Type: functional
measurement-conditions: Homo sapiens
recorded-endpoint: MIC (µg/mL)
Value expressed in µg/mL; do not type the unit.

Known MIC results, listed for orientation:
Nc1nc(=O)n(C2COC(CO)C(O)C2)cc1F (configuration not stated) = 0.07
O=c1[nH]c(=O)n([C@H]2C[C@H](O)[C@@H](CO)O2)cc1I = 40
Nc1ncnc2c1ncn2C[C@@H](CO)OCP(=O)(O)O = 1

We next turn to a different compound, shown below.
// sample O=c1[nH]c(=O)n([C@H]2C[C@H](O)[C@@H](CO)O2)cc1/C=C/Br , its MIC was 40

----------
System: HEL
test-protocol: Tested for the inhibitory concentration required to reduce thymidine kinase deficient Varicella-Zoster virus (TK- VZV) strain 07/1 plaque formation by 50%.
Assay type: functional, cell-based
measurement-conditions: Homo sapiens
Measured IC50 of individual entries

These recorded examples may help you get a feel for the data.
Nc1nc(=O)n(C2COC(CO)C(O)C2)cc1Cl (stereo not given) = > 40 µg/mL
O=c1[nH]c(=O)n(C2COC(CO)C(O)C2)cc1I (stereo not given) = > 100 µg/mL
CCc1cn(C2COC(CO)C(O)C2)c(=O)[nH]c1=O (stereo not given) = > 50 µg/mL
O=c1[nH]c(=O)n(C2COC(CO)C(O)C2)cc1F (stereo not given) = > 40 µg/mL

Log: HEL, compound O=c1ccn(C2COC(CO)C(O)C2)c(=O)[nH]1 (stereo not given) , IC50 = > 40 µg/mL

----------
System: E6SM
test-protocol: Tested for the minimum inhibitory concentration required to reduce thymidine kinase deficient herpes simplex virus type 1 (TK- HSV-1) strain B2006 induced cytopathogenicity by 50%.
Format: functional
measurement-conditions: Homo sapiens
Measured MIC accompanies every entry in the list below.

// O=c1ccn(C2COC(CO)C(O)C2)c(=O)[nH]1 (stereo not drawn) : MIC value = > 400 µg/mL

Documented MIC of Nc1nc(=O)n(C2COC(CO)C(O)C2)cc1Cl (stereo not drawn) : > 400 µg/mL

Value of measured MIC for the entry CCc1cn(C2COC(CO)C(O)C2)c(=O)[nH]c1=O (stereo not drawn) : > 400 µg/mL
